biological target: b-Raf(V600E) (Homo sapiens, UniProt P15056, V600E); construct: made in house; assay: Raf/Mek Amplified Luminescence Proximity Homogeneous Assay (Alpha Screen), b-Raf(V600E); assay type: biochemical; conditions: mutant b-Raf(V600E), read-out: mut-b-RAF (IC50 in uM)
Sequence (P15056 whole entry V600E): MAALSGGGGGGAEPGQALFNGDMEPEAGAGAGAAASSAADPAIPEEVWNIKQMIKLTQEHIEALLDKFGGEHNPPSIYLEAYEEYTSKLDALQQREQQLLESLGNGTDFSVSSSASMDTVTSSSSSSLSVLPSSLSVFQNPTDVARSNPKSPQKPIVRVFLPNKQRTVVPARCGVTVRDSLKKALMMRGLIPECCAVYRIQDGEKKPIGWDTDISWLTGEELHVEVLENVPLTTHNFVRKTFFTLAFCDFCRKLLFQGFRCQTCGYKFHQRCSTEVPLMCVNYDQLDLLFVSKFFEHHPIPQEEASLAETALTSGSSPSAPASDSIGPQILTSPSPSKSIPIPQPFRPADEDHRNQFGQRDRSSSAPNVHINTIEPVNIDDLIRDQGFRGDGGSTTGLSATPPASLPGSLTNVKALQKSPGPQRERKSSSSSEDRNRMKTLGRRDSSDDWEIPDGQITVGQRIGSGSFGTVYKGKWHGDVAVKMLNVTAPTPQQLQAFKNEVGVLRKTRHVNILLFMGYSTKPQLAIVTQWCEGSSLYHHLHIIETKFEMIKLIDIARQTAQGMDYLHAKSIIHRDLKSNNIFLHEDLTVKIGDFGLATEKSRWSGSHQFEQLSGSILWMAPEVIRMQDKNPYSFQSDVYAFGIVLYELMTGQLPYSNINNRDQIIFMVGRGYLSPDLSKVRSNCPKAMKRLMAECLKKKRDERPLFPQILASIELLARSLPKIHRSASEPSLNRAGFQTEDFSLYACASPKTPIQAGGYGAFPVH
QUANTITY_KIND: IC50 (µM)
// return numeric value only (unit: µM, not printed)

// query IC50 value for entry `COc1cc(-c2nc(C(C)(C)C)[nH]c2-c2ccnc(NC[C@H](C)NC(C)=O)n2)cnc1N`
0.0003

// query IC50 value for entry `COc1cc(-c2nc(-c3ccc(C(F)(F)F)cc3)oc2-c2ccnc(NCC(C)C)n2)cnc1N`
0.014

// query IC50 value for entry `COC(=O)N[C@@H](C)CNc1nccc(-c2nc(C(C)(C)C)[nH]c2-c2cnc(N)c(C(C)=O)c2)n1`
0.0004

// query IC50 value for entry `Cc1cc(-c2[nH]c(-c3ccc(F)cc3)nc2-c2ccncc2)cnc1N`
0.0658

====

Each entry below lists one item and its recorded log10(IC50) value.
target: b-Raf(V600E) (Homo sapiens, UniProt P15056, V600E); construct: made in house; assay: Raf/Mek Amplified Luminescence Proximity Homogeneous Assay (Alpha Screen), b-Raf(V600E); assay type: biochemical; settings: mutant b-Raf(V600E), read-out: mut-b-RAF (IC50 in uM)
Base-10 log of IC50, unit µM.

Here are 8 compounds together with their reported answers.
# SMILES_STR, TESTED_ON, log10(IC50)
measured = [
    ("COc1cc(-c2[nH]c(-c3ccc(F)cc3)nc2-c2ccnc(N[C@H]3CCN(C(C)=O)C3)n2)cnc1N", "b-Raf(V600E) (Homo sapiens, UniProt P15056, V600E)", -2.10),
    ("COc1cc(-c2[nH]c(-c3ccc(F)cc3)nc2-c2ccncc2Cl)cnc1N", "b-Raf(V600E) (Homo sapiens, UniProt P15056, V600E)", -1.22),
    ("COC(=O)c1cccc(-c2nc(-c3ccncc3)c(-c3cnc(N)c(OC)c3)[nH]2)c1", "b-Raf(V600E) (Homo sapiens, UniProt P15056, V600E)", -2.89),
    ("[2H]C([2H])([2H])Oc1nc(-c2nc(C(C)(C)C)[nH]c2-c2ccnc(NC[C@H](C)NC(=O)OC)n2)cnc1N", "b-Raf(V600E) (Homo sapiens, UniProt P15056, V600E)", -4.00),
    ("COc1cc(Nc2nccc(-c3[nH]c(C(C)(C)C)nc3-c3cnc4[nH]cc(Cl)c4c3)n2)ccn1", "b-Raf(V600E) (Homo sapiens, UniProt P15056, V600E)", -3.52),
    ("COc1cc(-c2[nH]c(-c3cccc4ncccc34)nc2-c2ccncc2)cnc1N", "b-Raf(V600E) (Homo sapiens, UniProt P15056, V600E)", -2.80),
    ("COc1cc(N)ncc1-c1[nH]c(-c2ccccc2)nc1-c1ccncc1", "b-Raf(V600E) (Homo sapiens, UniProt P15056, V600E)", -0.30),
    ("COCC(=O)NCCNc1nccc(-c2nc(-c3ccc(F)cc3)[nH]c2-c2cnc3[nH]cc(Cl)c3c2)n1", "b-Raf(V600E) (Homo sapiens, UniProt P15056, V600E)", -3.52),
]

// query log10(IC50) value for entry `COc1cc(-c2[nH]c(-c3ccccc3C(F)(F)F)nc2-c2ccncc2)cnc1N`
-2.55

====

target: b-Raf(V600E) (Homo sapiens, UniProt P15056, V600E); construct: made in house; assay: Raf/Mek Amplified Luminescence Proximity Homogeneous Assay (Alpha Screen), b-Raf(V600E); type: biochemical; conditions: mutant b-Raf(V600E), read-out: mut-b-RAF (IC50 in uM)
Each entry below lists one item and its recorded log10 IC50 value.
Base-10 log of IC50, unit µM.

# COMPOUND, TESTED_ON, QUANTITY_KIND, OBSERVED
data = [
    ("COc1cc(-c2nc(-c3ccccc3)oc2-c2ccncc2)cnc1N [Compound 92]", "b-Raf(V600E) (Homo sapiens, UniProt P15056, V600E)", "log10 IC50", -3.52),
    ("COc1cc(Nc2nccc(-c3[nH]c(C)nc3-c3cnc(N)c(OC)c3)n2)ccn1 [Compound 244]", "b-Raf(V600E) (Homo sapiens, UniProt P15056, V600E)", "log10 IC50", -2.52),
    ("COCC(=O)N[C@@H](C)CNc1nccc(-c2[nH]c(-c3ccc(C(F)(F)F)cc3)nc2-c2cnc(N)c(OC)c2)n1 [Compound 198]", "b-Raf(V600E) (Homo sapiens, UniProt P15056, V600E)", "log10 IC50", -3.52),
    ("COc1cc(-c2[nH]c(-c3cc(C(=O)N(C)C)ccc3F)nc2-c2ccncc2)cnc1N [Compound 124]", "b-Raf(V600E) (Homo sapiens, UniProt P15056, V600E)", "log10 IC50", -1.78),
    ("COc1ccc(-c2nc(-c3ccncc3)c(-c3cnc(N)c(OC)c3)[nH]2)cc1F [Compound 108]", "b-Raf(V600E) (Homo sapiens, UniProt P15056, V600E)", "log10 IC50", -3.15),
]

// switching to the query compound
// query log10 IC50 value for entry COc1cc(-c2[nH]c(-c3ccc(F)cc3F)nc2-c2ccncc2)cnc1N [Compound 106]
-3.00

====

target: b-Raf(V600E) (Homo sapiens, UniProt P15056, V600E); construct: made in house; assay: Raf/Mek Amplified Luminescence Proximity Homogeneous Assay (Alpha Screen), b-Raf(V600E); type: biochemical; conditions: mutant b-Raf(V600E), read-out: mut-b-RAF (IC50 in uM)
Each entry below lists one item and its recorded IC50 value.
// return numeric value only (unit: µM, not printed)

# SMILES_STR, VALUE_UNIT, OBSERVED
measured = [
    ("COc1cc(-c2[nH]c(-c3ccc(F)cc3)nc2-c2ccnc3[nH]ccc23)cnc1N", "µM", 0.0088),
]

// query IC50 value for entry `COc1cc(-c2[nH]c(-c3ccc(F)cc3)nc2-c2ccnc(NC3CCCCC3)n2)cnc1N`
0.0483

// query IC50 value for entry `COc1cc(-c2nc(-c3ccc(F)cc3)[nH]c2-c2ccnc(Nc3cccc(F)c3)n2)cnc1N`
0.0014

// query IC50 value for entry `COc1cc(-c2[nH]c(-c3cc(C)ccc3F)nc2-c2ccncc2)cnc1N`
0.0012

// query IC50 value for entry `COc1cc(-c2nc(C3=CCOCC3)[nH]c2-c2ccncc2)cnc1N`
0.0033

// query IC50 value for entry `COc1cncc(-c2[nH]c(-c3ccccc3)nc2-c2ccncc2)c1`
0.013

====

Target: b-Raf(V600E) (Homo sapiens, UniProt P15056, V600E)
Construct: made in house
Assay: Raf/Mek Amplified Luminescence Proximity Homogeneous Assay (Alpha Screen), b-Raf(V600E)
Assay type: biochemical
Conditions: mutant b-Raf(V600E), read-out: mut-b-RAF (IC50 in uM)
Experimental: Assay buffer: 50 mM Tris, pH 7.5, 15 mM MgCl2, 0.01% BSA, 1 mM DTT Stop buffer: 60 mM EDTA, 0.01% Tween20 Bead buffer: 50 mM Tris, pH 7.5, 0.01% Tween20 […] The Raf kinase activity reaction was started by the addition of 10 μl per well of 2×ATP diluted in assay buffer. […] A lid was placed on top of the plate and incubated for 1 hour at room temperature, then the luminescence was read on a PerkinElmer Envision instrument. […]
Each entry below lists one item and its recorded IC50 value.
// return numeric value only (unit: µM, not printed)

Here are 3 molecules together with their reported answers.
# MOLECULE, IC50 (µM)
rows = [
    ("COc1nc(-c2nc(C(C)(C)C)[nH]c2-c2ccnc(NC[C@H](C)NC(=O)OCC(C)C)n2)c(C)nc1N [Compound 258]", 0.0011),
    ("COc1cc(-c2[nH]c(-c3ccc(OCCN(C)C)cc3)nc2-c2ccncc2)cnc1N [Compound 114]", 0.0064),
    ("CN(C)c1cncc(-c2[nH]c(-c3ccc(F)cc3)nc2-c2ccncc2)c1 [Compound 157]", 0.017),
]

// query IC50 value for entry Fc1ccc(-c2nc(-c3ccncc3)c(-c3ccc4ncnn4c3)[nH]2)cc1 [Compound 130]
0.416

// query IC50 value for entry COc1cc(-c2[nH]c(-c3cccc(C(N)=O)c3)nc2-c2ccncc2)cnc1N [Compound 122]
0.0021

// query IC50 value for entry COc1cc(-c2[nH]c(-c3ccccc3)nc2-c2ccnc(NCCNC(C)=O)n2)cnc1N [Compound 67]
0.0001

// query IC50 value for entry Cc1n[nH]c2ccc(-c3[nH]c(-c4ccccc4)nc3-c3ccncc3)cc12 [Compound 35]
0.099

Ref: patent US20100003246A1
